- System: orosomucoid
- Experimental protocol: Binding to orosomucoid (as described in Philibert et al.)
- Design: species or system human
- Setup conditions: relative to RU 486 (100%)
Listed here: items and their measured Binding affinity to orosomucoid (relative to RU 486).
Numbers only; they are read as %.

Worked cases, answers included:
In [3]: df
Out[3]:
                                   molecule  assay_value
0  C=C1CCO[C@]12CC[C@H]1[C@@H]3CCC4=CC(=O)CCC4=C3[C@@H](c3ccc(N(C)C)cc3)C[C@@]12C [Org 33245]          222
1  C=C1CCO[C@]12CC[C@H]1[C@@H]3CCC4=CC(=O)CCC4=C3[C@@H](c3ccc(SC)cc3)C[C@@]12C           82

As a next step, examine the molecule that follows.
# query: Binding affinity to orosomucoid (relative to RU 486) of entry C=C1CCO[C@]12CC[C@H]1[C@@H]3CCC4=CC(=O)CCC4=C3[C@@H](c3ccc(OC)cc3)C[C@@]12C
64

* * *

- Experimental protocol: Anti-McPhail test for anti-progestagenic activity
- Type: in vivo
- Setup conditions: Minimum Active Dose (MAD)
# maps each entry to its minimal effective dose
Quick reminder: number only, in mg/kg, skip the unit.

>>> df
                         chemical_structure  assay_value
0  C=C1CCO[C@]12CC[C@H]1[C@@H]3CCC4=CC(=O)CCC4=C3[C@@H](c3ccc(C(C)=O)cc3)C[C@@]12C            8
1  C=C1CCO[C@]12CC[C@H]1[C@@H]3CCC4=CC(=O)CCC4=C3[C@@H](c3ccc(N(C)C)cc3)C[C@@]12C          0.5

For C=C1CCO[C@]12CC[C@H]1[C@@H]3CCC4=CC(=O)CCC4=C3[C@@H](c3ccc(OC)cc3)C[C@@]12C , what is its reported minimal effective dose?
1

Source listed as patent EP1178807B1.
